From: ChEMBL document CHEMBL1132157

Selectivity reference
- Assay method text: Ratio of IC50 for human 5-HT1B to human 5-HT1D receptors
Respond with the number and no other words.

Example entries and their recorded answers appear below.
[[record]]
chemical_structure = "OC[C@H](NC1CCN(CCCc2c[nH]c3ccc(-n4cnnc4)cc23)CC1)c1ccc(F)cc1"
reported_result = 170

[[record]]
chemical_structure = "C[C@@H](NC1CCN(CCCc2c[nH]c3ccc(-n4cnnc4)cc23)CC1)[C@@H](O)c1ccccc1"
reported_result = 18

[[record]]
chemical_structure = "CN(Cc1ccco1)C1CCN(CCCc2c[nH]c3ccc(-n4cnnc4)cc23)CC1"
reported_result = 9.6


Input line: I am curious: what Selectivity value has been reported for `O=S(=O)(NCC1CCN(CCCc2c[nH]c3ccc(-n4cnnc4)cc23)CC1)c1ccccc1` ?
Output line: 10

----------
- Test system: 5-hydroxytryptamine receptor 1D (Homo sapiens, UniProt P28221)
- Sequence (P28221 whole entry): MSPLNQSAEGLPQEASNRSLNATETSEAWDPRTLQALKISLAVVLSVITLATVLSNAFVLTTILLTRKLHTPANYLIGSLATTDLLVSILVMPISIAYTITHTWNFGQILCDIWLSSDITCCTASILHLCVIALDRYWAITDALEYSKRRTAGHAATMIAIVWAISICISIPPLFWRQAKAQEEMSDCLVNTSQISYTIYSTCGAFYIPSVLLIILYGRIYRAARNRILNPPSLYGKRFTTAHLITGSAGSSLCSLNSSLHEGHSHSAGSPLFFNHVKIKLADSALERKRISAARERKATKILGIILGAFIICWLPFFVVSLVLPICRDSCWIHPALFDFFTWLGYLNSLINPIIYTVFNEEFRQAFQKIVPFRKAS
- Assay method text: Displacement of [3H]5-HT binding to cloned human 5-hydroxytryptamine 1D receptor stably expressed in CHO cells
- Type: cell-based
IC50 reference
Just the number please, in nM, no unit attached.

[[record]]
compound = "c1ccc(CNCC2CCN(CCCc3c[nH]c4ccc(-n5cnnc5)cc34)CC2)cc1"
test_system = "5-hydroxytryptamine receptor 1D (Homo sapiens, UniProt P28221)"
units = "nM"
reported_result = 1.6

[[record]]
compound = "CC(=O)Nc1ccc(C(=O)N(C)CC2CCN(CCCc3c[nH]c4ccc(-n5cnnc5)cc34)CC2)cc1"
test_system = "5-hydroxytryptamine receptor 1D (Homo sapiens, UniProt P28221)"
units = "nM"
reported_result = 17

[[record]]
compound = "CC(=O)Nc1ccc([C@H](C)NCC2CCN(CCCc3c[nH]c4ccc(-n5cnnc5)cc34)CC2)cc1"
test_system = "5-hydroxytryptamine receptor 1D (Homo sapiens, UniProt P28221)"
units = "nM"
reported_result = 0.6

[[record]]
compound = "c1ccc(NCC2CCN(CCCc3c[nH]c4ccc(-n5cnnc5)cc34)CC2)nc1"
test_system = "5-hydroxytryptamine receptor 1D (Homo sapiens, UniProt P28221)"
units = "nM"
reported_result = 1.7


Input line: I am curious: what IC50 value has been reported for `O[C@@H]1Cc2ccccc2[C@H]1NC1CCN(CCCc2c[nH]c3ccc(-n4cnnc4)cc23)CC1` ?
Output line: 6.6

Input line: I am curious: what IC50 value has been reported for `CN(C)C[C@H](NC1CCN(CCCc2c[nH]c3ccc(-n4cnnc4)cc23)CC1)c1ccccc1` ?
Output line: 1.5

Input line: I am curious: what IC50 value has been reported for `CN(Cc1ccco1)C1CCN(CCCc2c[nH]c3ccc(-n4cnnc4)cc23)CC1` ?
Output line: 9.3

Input line: I am curious: what IC50 value has been reported for `CC(=O)Nc1ccc(CNCC2CCN(CCCc3c[nH]c4ccc(-n5cnnc5)cc34)CC2)cc1` ?
Output line: 4.2

----------
IC50 reference
- Test system: 5-hydroxytryptamine receptor 1B (Homo sapiens, UniProt P28222)
- Sequence (P28222 whole entry): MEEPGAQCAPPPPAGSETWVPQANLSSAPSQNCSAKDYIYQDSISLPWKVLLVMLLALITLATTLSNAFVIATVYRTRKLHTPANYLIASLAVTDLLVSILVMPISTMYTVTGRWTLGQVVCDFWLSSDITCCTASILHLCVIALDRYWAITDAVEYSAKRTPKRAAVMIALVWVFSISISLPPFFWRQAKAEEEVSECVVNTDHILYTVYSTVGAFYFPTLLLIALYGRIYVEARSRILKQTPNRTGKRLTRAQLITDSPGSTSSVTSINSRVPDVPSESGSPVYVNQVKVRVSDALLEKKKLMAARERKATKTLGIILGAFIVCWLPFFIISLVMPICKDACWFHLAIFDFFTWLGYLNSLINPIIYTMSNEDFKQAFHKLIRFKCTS
- Assay method text: Displacement of [3H]5-HT binding to cloned 5-hydroxytryptamine 1B receptor stably expressed in CHO cells
- Assay type: cell-based
Just the number please, in nM, no unit attached.

Example entries and their recorded answers appear below.
[[record]]
chemical_structure = "CN(C1CCN(CCCc2c[nH]c3ccc(-n4cnnc4)cc23)CC1)S(=O)(=O)c1ccccc1"
measured_property = "IC50"
reported_result = 10

[[record]]
chemical_structure = "c1cc(CNC2CCN(CCCc3c[nH]c4ccc(-n5cnnc5)cc34)CC2)co1"
measured_property = "IC50"
reported_result = 78


Input line: I am curious: what IC50 value has been reported for `CN(Cc1ccc(S(C)(=O)=O)cc1)CC1CCN(CCCc2c[nH]c3ccc(-n4cnnc4)cc23)CC1` ?
Output line: 66

Input line: I am curious: what IC50 value has been reported for `c1ccc(CNC2CCN(CCCc3c[nH]c4ccc(-n5cnnc5)cc34)CC2)nc1` ?
Output line: 76

Input line: I am curious: what IC50 value has been reported for `OC[C@H](NCC1CCN(CCCc2c[nH]c3ccc(-n4cnnc4)cc23)CC1)c1ccccc1` ?
Output line: 79

Input line: I am curious: what IC50 value has been reported for `CC(=O)Nc1ccc(CCNC2CCN(CCCc3c[nH]c4ccc(-n5cnnc5)cc34)CC2)cc1` ?
Output line: 170

Input line: I am curious: what IC50 value has been reported for `c1cc(CNC2CCN(CCCc3c[nH]c4ccc(-n5cnnc5)cc34)CC2)ccn1` ?
Output line: 140

Input line: I am curious: what IC50 value has been reported for `C[C@H](NCC1CCN(CCCc2c[nH]c3ccc(-n4cnnc4)cc23)CC1)c1ccccc1` ?
Output line: 58
